# Measurement Description: chemical genetic growth profiling, strain panel (AID 1159580);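 also: tested at 20 µM; growth read once vehicle control cultures reached saturation at 30 °C; 1 = growth at the plate median or of vehicle wells; lower values mean less growth of the strain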
# Experimental Parameters: S. cerevisiae deletion strains, growth OD, locus YGL173C, strain kem1, hits give low values
About 2,000 (36%) of roughly 5,500 compounds were called active. Not shown: some 18% with an inconclusive outcome. This is one part of the list.
// reported normalized growth per item
Write the value as a bare number.

[[record]]
molecule = "OC[C@H]1O[C@@H](Oc2ccc(O)cc2)[C@H](O)[C@@H](O)[C@@H]1O"
value_kind = "normalized growth"
quantitative_readout = 1.02


Reported normalized growth of O=C(c1ccccc1)c1ccc2n1CCC2C(=O)O (configuration not stated) : 1

Just so you know, measured normalized growth for C=C(C)C1Cc2c(ccc3c(=O)c4c(oc23)COc2cc(OC)c(OC)cc2-4)O1 (configuration not stated) came out at 0.996

Form field normalized growth, entry CC(=O)O[C@H]1CC2CCC3C(CC[C@@]4(C)C3C[C@H]([N+]3(C)CCCCC3)[C@@H]4OC(C)=O)[C@@]2(C)C[C@@H]1N1CCCCC1 (some centres not stated) : 1.03

Data point: `CNC(=O)Oc1ccccc1OC(C)C` ; normalized growth = 0.987

Looking up `Cn1c(=O)[nH]c2nc[nH]c2c1=O` , I see its normalized growth listed as 1.02

For `O=C(O)CC[N+](=O)[O-]` the molecule record lists normalized growth as 1.02

Record `CON` , field normalized growth: 0.998

According to the records, this molecule `O=C(/C=C/c1ccc(O)cc1)c1ccc(O)cc1O` displays normalized growth of 1.02

// normalized growth value for `CC(C)[C@@H]1CC[C@@H](C)CC1=O` : 0.999

Recorded result, C[N+]12CCC(CC1)C(OC(=O)C(O)(c1ccccc1)c1ccccc1)C2 (configuration not stated) , normalized growth: 0.974

Given item `C=CC[C@@H]1/C=C(\C)C[C@H](C)C[C@H](OC)[C@H]2O[C@@](O)(C(=O)C(=O)N3CCCC[C@H]3C(=O)O[C@H](/C(C)=C/[C@@H]3CC[C@@H](O)[C@H](OC)C3)[C@H](C)[C@@H](O)CC1=O)[C@H](C)C[C@@H]2OC` , the value recorded as its normalized growth is 0.848

For `CC1=C(C(=O)O)N2C(=O)[C@@H](NC(=O)[C@@H](N)c3ccc(O)cc3)[C@H]2SC1` the molecule record lists normalized growth as 1.04

Value of normalized growth reported for the molecule COC(=O)C[C@H]1C(C)(C)[C@@H](OC(C)=O)[C@@H]2CC3=C4CC(=O)O[C@@H](c5ccoc5)[C@]4(C)CCC3[C@@]1(C)C2=O (some centres not stated) is 0.989

The molecule listed as `O=C(/C=C/c1ccccc1)c1ccc(O[C@@H]2O[C@H](CO)[C@@H](O)[C@H](O)[C@H]2O)cc1O` has a reported normalized growth of 0.899

GET /value?item= `O=c1c(O)c(-c2ccccc2)oc2cccc(O)c12` &field=normalized growth returns 0.599

normalized growth recorded for this molecule, `COc1cc(O)c2c(c1)C(=O)c1cc(C)cc(O)c1C2=O` , is 0.993

Data point: `CC(=O)c1c(O)cc(O)cc1O` ; normalized growth = 0.993

Lookup result for `O=C1C=CC(=O)c2c(O)c(Cl)c(Cl)c(O)c21` ; measured normalized growth: 0.0767

// recorded normalized growth for ClC1C(Cl)C(Cl)C(Cl)C(Cl)C1Cl (configuration not stated) : 0.96

// field: normalized growth; key: COc1ccccc1OCC(O)COC(N)=O (configuration not stated) ; value = 0.992

// `O=C(/C=C/c1ccc(O)cc1)c1ccccc1O` : normalized growth value = 0.585

FYI, the data here is from PubChem BioAssay AID1159580.
